Molecular target: human NTCP (Homo sapiens, UniProt Q14973)
Sequence (Q14973 1-349): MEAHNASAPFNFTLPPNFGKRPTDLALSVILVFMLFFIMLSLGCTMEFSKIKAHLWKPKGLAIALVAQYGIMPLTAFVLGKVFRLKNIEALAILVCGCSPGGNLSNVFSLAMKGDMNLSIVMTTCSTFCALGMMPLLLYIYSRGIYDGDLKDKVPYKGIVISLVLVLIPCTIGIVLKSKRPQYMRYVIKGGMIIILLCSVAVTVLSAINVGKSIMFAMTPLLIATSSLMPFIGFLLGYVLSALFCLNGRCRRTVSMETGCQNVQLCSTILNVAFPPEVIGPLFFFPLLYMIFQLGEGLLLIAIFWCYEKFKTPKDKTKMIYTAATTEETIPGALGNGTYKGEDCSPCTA
Test: Screening taurocholate uptake assay (96-well, [14C]taurocholate, 10 µM drug)
Conditions: combined ranking from functional and binding assay B-scores
Structures can show the parent of a compound that is named as a salt.
MEASUREMENT_LABEL: Ranking score
Number only, please.

Example cases with answers are listed next.
COMPOUND: CCN(CC)CCNC(=O)c1cc(S(C)(=O)=O)ccc1OC [Tiapride hydrochloride]
READOUT_NUMBER: 1010.78
--
COMPOUND: CC[C@H]1OC(=O)[C@H](C)[C@@H](O[C@H]2C[C@@](C)(OC)[C@@H](O)[C@H](C)O2)[C@H](C)[C@@H](O[C@@H]2O[C@H](C)C[C@H](N(C)C)[C@H]2O)[C@](C)(O)C[C@@H](C)CN(C)[C@H](C)[C@@H](O)[C@]1(C)O
READOUT_NUMBER: 972.082
--
COMPOUND: Cc1ncc(CO)c(CO)c1O [Pyridoxine hydrochloride]
READOUT_NUMBER: 1004.23

Please examine the following record next.
Ask | Which measured Ranking score belongs to Cc1ccc(C(=O)c2ccc(CC(=O)O)n2C)cc1 [Tolmetin sodium salt dihydrate] , tested on human NTCP (Homo sapiens, UniProt Q14973)?
Reply | 996.915
